Test system: Puccinia triticina
Experiment: Wheat brown rust (PUCCRT), disease control on wheat seedlings
Type: in vivo
Settings: 72 h, high volume application at 100 ppm, 3 Day Curative, read-out: PUCCRT disease control, 3DC, HV activity
readout_type: pest or weed control at 100 ppm

Which pest or weed control at 100 ppm is reported for this compound? COc1cc[n+]([O-])c(C(=O)N[C@@H](C)C(=O)O[C@@H](C)[C@@H](c2ccc(C)cc2C)C2CCCC2)c1O
< 80%

Query COc1ccnc(C(=O)N[C@@H](C)C(=O)O[C@H](C)[C@H](c2ccc(F)cc2C)C2CCCC2)c1O next
< 0%

Then what about the compound COc1ccnc(C(=O)NCC(=O)O[C@@H](C)[C@H](c2ccc(F)cc2C)C(C)C)c1O ?
> 80%

Likewise for COc1cc(F)ccc1[C@@H](C(C)C)[C@H](C)OC(=O)[C@H](C)NC(=O)c1nccc(OC)c1O ?
> 80%

Let us now turn to COc1ccnc(C(=O)N[C@@H](C)C(=O)O[C@@H](C)[C@@H](c2ccccc2)C2CCCC2)c1O
< 0%

* * *

pest or weed control at 100 ppm overview
System: Zymoseptoria tritici
Experiment: Leaf blotch of wheat (SEPTTR), disease control on wheat seedlings
Type: in vivo
Settings: 24 h, high volume application at 100 ppm, 1 Day Protectant, read-out: SEPTTR disease control, 1DP, HV activity

Illustrative cases are given below, each with its answer.
- COc1cc[n+]([O-])c(C(=O)N[C@@H](C)C(=O)O[C@@H](C)[C@@H](c2ccc(C)cc2C)C2CCCC2)c1O: < 80%
- COc1ccnc(C(=O)N[C@@H](C)C(=O)O[C@@H](C)[C@@H](c2ccc(F)cc2C)C2CCCCC2)c1O: > 80%
- COc1ccnc(C(=O)N[C@@H](C)C(=O)O[C@@H](C)[C@H](c2ccc(OC(C)C)cc2)C(C)C)c1O: < 80%

Give the measured pest or weed control at 100 ppm of COc1ccnc(C(=O)N[C@@H](C)C(=O)O[C@@H](C)[C@H](c2cc(F)ccc2C)C(C)C)c1O .
< 80%

Next compound: COc1ccnc(C(=O)N[C@@H](C)C(=O)O[C@H](C)[C@H](c2ccc(F)cc2C)C(C)C)c1O
< 80%

And CCC(C)[C@H](c1ccc(F)cc1OC)[C@H](C)OC(=O)[C@H](C)NC(=O)c1nccc(OC)c1O (stereo partly shown) ?
< 0%

Another compound to look at: COc1ccnc(C(=O)N[C@H](C(=O)O[C@@H](C)[C@H](c2ccc(F)cc2C)C(C)C)C(C)C)c1O
< 80%

* * *

Tested on: Zymoseptoria tritici
Test: Leaf blotch of wheat (SEPTTR), disease control on wheat seedlings
Format: in vivo
Conditions: 24 h, high volume application at 100 ppm, 1 Day Protectant, read-out: SEPTTR disease control, 1DP, HV activity
# pest or weed control at 100 ppm annotations

Illustrative cases are given below, each with its answer.
• COc1cc(F)ccc1[C@@H](C1CCCC1)[C@H](C)OC(=O)[C@H](C)NC(=O)c1nccc(OC)c1O = < 0%
• CCC(CC)[C@@H](c1ccc(F)cc1C)[C@H](C)OC(=O)[C@H](C)NC(=O)c1nccc(OC)c1O = > 80%

Given CCC(CC)[C@H](c1ccc(F)cc1C)[C@H](C)OC(=O)[C@H](C)NC(=O)c1nccc(OC)c1O , state its recorded pest or weed control at 100 ppm.
> 80%

Also COc1cc(F)ccc1[C@H](C1CCC1)[C@H](C)OC(=O)[C@H](C)NC(=O)c1nccc(OC)c1O ?
< 0%

* * *

Test system: Zymoseptoria tritici
Assay: Leaf blotch of wheat (SEPTTR), disease control on wheat seedlings
Format: in vivo
Settings: 24 h, high volume application at 100 ppm, 1 Day Protectant, read-out: SEPTTR disease control, 1DP, HV activity
readout_type: pest or weed control at 100 ppm

Some solved cases for reference:
- COc1ccnc(C(=O)N[C@@H](C)C(=O)O[C@@H](C)[C@H](c2ccc(Cl)cc2Cl)C(C)C)c1O [Compound 330]: < 80%
- CCC(C)[C@@H](c1ccc(F)cc1C)[C@H](C)OC(=O)[C@H](C)NC(=O)c1nccc(OC)c1O (stereo partly shown) [Compound 126]: > 80%
- COc1ccnc(C(=O)N[C@@H](C)C(=O)O[C@@H](C)[C@H](c2ccc3c(c2)OCO3)C(C)C)c1O [Compound 334]: < 80%

# context switch: different compound, same pest or weed control at 100 ppm
Fill in: pest or weed control at 100 ppm of COc1cc(F)ccc1[C@@H](C1CCC1)[C@H](C)OC(=O)[C@H](C)NC(=O)c1nccc(OC)c1O [Compound 142] is ___
< 0%

* * *

System: Zymoseptoria tritici
Assay: Leaf blotch of wheat (SEPTTR), disease control on wheat seedlings
Assay type: in vivo
Conditions: 72 h, high volume application at 100 ppm, 3 Day Curative, read-out: SEPTTR disease control, 3DC, HV activity
Readings of pest or weed control at 100 ppm for the listed compounds

Here are 3 compounds together with their reported answers.
- COc1ccnc(C(=O)N[C@@H](CC(C)C)C(=O)O[C@@H](C)[C@H](c2ccc(F)cc2C)C(C)C)c1O: < 80%
- COc1ccnc(C(=O)N[C@@H](C)C(=O)O[C@@H](C)[C@H](c2ccc(F)cc2)C(C)C)c1O: > 80%
- CCC(C)[C@@H](c1ccc(F)cc1OC)[C@H](C)OC(=O)[C@H](C)NC(=O)c1nccc(OC)c1O (some centres unmarked): > 80%

Write down the reported pest or weed control at 100 ppm of COc1ccnc(C(=O)N[C@@H](C)C(=O)O[C@@H](C)[C@@H](c2ccc(C)cc2C)C2CCCCC2)c1O , test system: Zymoseptoria tritici.
< 80%

Note, next up: COc1ccnc(C(=O)N[C@@H](C)C(=O)O[C@@H](C)[C@H](c2ccc(OC(F)(F)F)cc2)C(C)C)c1O
< 80%

How about this compound: COc1ccnc(C(=O)N[C@@H](C)C(=O)O[C@@H](C)[C@H](c2ccc(F)cc2C)C2CCC2)c1O
< 80%

Query COc1ccnc(C(=O)N[C@@H](C)C(=O)O[C@H](C)[C@H](c2ccc(F)cc2C)C(C)C)c1O next
< 80%

Now consider COc1ccc([C@H](C(C)C)[C@H](C)OC(=O)[C@H](C)NC(=O)c2nccc(OC)c2O)cc1 .
< 80%

* * *

System: Puccinia triticina
Test: Wheat brown rust (PUCCRT), disease control on wheat seedlings
Format: in vivo
Conditions: 72 h, low volume application at 121.5 g/H, 3 Day Curative, read-out: PUCCRT disease control, 3DC, LV activity
Reported values of pest or weed control at 121.5 g/ha for individual entries

Worked examples follow.
- COc1ccnc(C(=O)N[C@@H](C)C(=O)O[C@@H](C)[C@@H](c2ccccc2)C(C)C)c1OC(C)=O: < 80%
- COc1ccnc(C(=O)N[C@@H](C)C(=O)O[C@@H](C)[C@H](c2ccc(F)cc2C)C(C)C)c1OC(=O)CC(C)C: < 80%

Give pest or weed control at 121.5 g/ha (Puccinia triticina) of the following compound: CCC(C)[C@@H](c1ccc(F)cc1C)[C@H](C)OC(=O)[C@H](C)NC(=O)c1nccc(OC)c1OCOC(C)=O (stereo partly shown)
> 80%

Further, for COc1ccc([C@H](C(C)C)[C@H](C)OC(=O)[C@H](C)NC(=O)c2nccc(OC)c2OCOC(C)=O)c(C)c1 ?
> 80%

Next: COCCC(=O)Oc1c(OC)ccnc1C(=O)N[C@@H](C)C(=O)O[C@@H](C)[C@H](c1ccc(C)cc1)C(C)C
> 80%

Now try COc1ccnc(C(=O)N[C@@H](C)C(=O)O[C@@H](C)[C@H](c2ccc(F)cc2C)C2CCC2)c1OC(C)=O .
< 80%

// query: COCCC(=O)Oc1c(OC)ccnc1C(=O)N[C@@H](C)C(=O)O[C@@H](C)[C@H](c1ccc(OC)cc1F)C(C)C
> 80%

* * *

System: Alternaria solani
Assay: Tomato early blight (ALTESO), disease control on tomato plants
Type: in vivo
Conditions: 1DP test at 100 ppm, read-out: ALTESO disease control rating
readout_type: pest or weed control at 100 ppm

Recorded pest or weed control at 100 ppm, per entry:
- COc1ccnc(C(=O)N[C@@H](C)C(=O)O[C@@H](C)[C@H](c2cccc(C)c2C)C(C)C)c1OC(C)=O [Compound 363]: < 0%
- COc1ccnc(C(=O)N[C@@H](C)C(=O)O[C@@H](C)[C@H](c2ccccc2C)C(C)C)c1OC(=O)C(C)C [Compound 375]: < 80%
- COc1ccnc(C(=O)N[C@@H](C)C(=O)O[C@@H](C)[C@H](c2cccc(F)c2C)C(C)C)c1OC(C)=O [Compound 359]: < 80%

What pest or weed control at 100 ppm appears in the records for this molecule with Alternaria solani? CCOC(=O)Oc1c(OC)ccnc1C(=O)N(C(=O)OCC)[C@@H](C)C(=O)O[C@@H](C)[C@H](c1ccc(F)cc1C)C(C)C [Compound 371]
< 80%

Next molecule up: CCOC(=O)Oc1c(OC)ccnc1C(=O)N[C@@H](C)C(=O)O[C@@H](C)[C@H](c1ccc(F)cc1C)C(C)C [Compound 372]
> 80%

Where do these numbers come from? They come from patent US20180186742A1.
